These entries and their values trace back to PubChem BioAssay (NCI).

Recorded TGI for the following compounds
test system: COLO 205 colon; assay: NCI tumour cell line growth inhibition, 48 h

Past entries and their recorded results:
1. CC(=O)NC1C(OCc2ccccc2)OC(COC(=O)CCCCCCCCCCNC(=O)c2cccc3c(=O)c4ccccc4[nH]c23)C(O)C1OC(C)C(=O)NC(C)C(=O)NC(CCC(N)=O)C(N)=O (stereo not drawn); > 100 µM
2. Cc1nc2c(n1Cc1ccc(Cl)cc1)C(=O)c1ccccc1C2=O; > 75 µM

Please examine the following record next.
Req: # return TGI of CC1OC(=O)N(CCCC=C2SCCCS2)C1=O (stereo not drawn) (system: COLO 205 colon)
Resp: > 100 µM
